# Method: Pharmacokinetic evaluation of compounds in mice
# Type: in vivo
# Cond: po, 50 mg/kg; CD-1 mouse (male), single gavage, 50 mpk, plasma
Counter-ions that a name gives are not always drawn.

{"columns": ["Molecule", "Quantity Unit", "half-life"],
 "data": [
  ["COc1cc(OC)c(Cl)c(-c2nc(-c3nc(-c4cn(C)nc4C)cnc3N)cn(C)c2=O)c1 [Trifluoroacetate salt of 0027]", "h", 2.46]
]}

====

# System Tested: FGFR3 (Homo sapiens, UniProt P22607)
# Construct: purchased Invitrogen PV3145
# Sequence (P22607 23-806): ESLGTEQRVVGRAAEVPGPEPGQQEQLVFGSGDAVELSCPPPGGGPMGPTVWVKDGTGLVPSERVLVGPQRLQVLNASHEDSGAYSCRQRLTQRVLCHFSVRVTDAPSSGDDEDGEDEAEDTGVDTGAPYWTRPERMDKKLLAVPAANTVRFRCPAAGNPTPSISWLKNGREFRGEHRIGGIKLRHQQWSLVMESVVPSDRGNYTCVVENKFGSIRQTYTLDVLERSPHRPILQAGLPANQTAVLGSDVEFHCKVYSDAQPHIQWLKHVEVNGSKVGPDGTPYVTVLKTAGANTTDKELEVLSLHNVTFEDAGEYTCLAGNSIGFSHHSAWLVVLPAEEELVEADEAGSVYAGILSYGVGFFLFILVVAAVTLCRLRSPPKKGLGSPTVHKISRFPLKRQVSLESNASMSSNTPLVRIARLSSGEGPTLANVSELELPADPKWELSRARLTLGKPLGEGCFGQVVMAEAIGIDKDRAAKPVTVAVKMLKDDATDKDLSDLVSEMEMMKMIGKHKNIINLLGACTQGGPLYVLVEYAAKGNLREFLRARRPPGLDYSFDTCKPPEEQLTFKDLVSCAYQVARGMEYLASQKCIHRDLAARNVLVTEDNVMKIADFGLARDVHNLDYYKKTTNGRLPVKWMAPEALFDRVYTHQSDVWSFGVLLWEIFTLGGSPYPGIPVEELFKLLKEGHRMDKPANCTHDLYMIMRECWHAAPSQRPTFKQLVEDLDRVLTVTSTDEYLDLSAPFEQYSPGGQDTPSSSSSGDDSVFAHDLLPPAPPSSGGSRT
# Method: 33P isotope-labeled kinase activity test (Reaction Biology Corp), wild-type FGFR3
# Type: biochemical
# Cond: ratio of IC50 FGFR1 to IC50 FGFR3

{"columns": ["Compound", "Selectivity FGFR1/3"],
 "data": [
  ["COc1cc(OC)cc(-c2nc(-c3nc(-c4cn(CC5(C#N)CC5)nc4C)cnc3N)cn(C)c2=O)c1 [compound 0043]", 6.63],
  ["COc1cc(OC)cc(-c2nc(-c3nc(-c4cn(CC(O)CC(F)(F)F)nc4C)cnc3N)cn(C)c2=O)c1 (single isomer, unassigned) [compound 0062]", 8.40],
  ["COc1cc(OC)cc(-c2nc(-c3nc(-c4cnn(CC(O)CC(F)(F)F)c4C)cnc3N)cn(C)c2=O)c1 (single isomer, unassigned) [compound 0064]", 11.18],
  ["COc1cc(OC)cc(-c2nc(-c3nc(-c4cn(CCO)nc4C)cnc3N)cn(C)c2=O)c1 [compound 0048]", 4.65]
]}

====

// log10(IC50) lookup, one value per entry
# System Tested: human FGFR1 (Homo sapiens)
# Construct: purchased Invitrogen PV3146
# Sequence (P11362 22-822): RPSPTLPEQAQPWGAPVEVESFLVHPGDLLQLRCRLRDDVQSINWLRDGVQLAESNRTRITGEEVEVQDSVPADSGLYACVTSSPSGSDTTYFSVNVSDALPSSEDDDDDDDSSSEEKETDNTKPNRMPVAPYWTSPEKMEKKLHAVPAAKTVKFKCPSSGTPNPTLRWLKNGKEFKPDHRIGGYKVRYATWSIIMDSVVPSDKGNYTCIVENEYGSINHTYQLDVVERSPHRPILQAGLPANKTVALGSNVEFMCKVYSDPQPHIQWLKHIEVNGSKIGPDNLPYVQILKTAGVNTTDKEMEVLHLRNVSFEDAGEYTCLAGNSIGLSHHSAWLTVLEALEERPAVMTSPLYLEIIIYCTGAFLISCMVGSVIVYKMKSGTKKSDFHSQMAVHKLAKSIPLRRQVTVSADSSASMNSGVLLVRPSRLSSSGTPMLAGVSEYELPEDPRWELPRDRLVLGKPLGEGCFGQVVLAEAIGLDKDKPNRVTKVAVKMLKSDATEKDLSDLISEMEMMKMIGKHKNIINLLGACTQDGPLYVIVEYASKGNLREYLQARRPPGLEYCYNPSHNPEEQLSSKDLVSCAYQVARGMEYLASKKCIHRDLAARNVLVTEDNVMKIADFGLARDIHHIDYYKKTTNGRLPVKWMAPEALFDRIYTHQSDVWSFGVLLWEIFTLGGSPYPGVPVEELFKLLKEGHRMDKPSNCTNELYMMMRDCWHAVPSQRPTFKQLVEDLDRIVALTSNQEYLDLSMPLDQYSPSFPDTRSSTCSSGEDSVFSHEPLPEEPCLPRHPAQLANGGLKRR
# Method: 33P isotope-labeled kinase activity test (Reaction Biology Corp), wild-type FGFR1
# Format: biochemical
# Cond: 33P-ATP 5 μM, substrate pEY + Mn, 120 minutes at room temperature
Counter-ions that a name gives are not always drawn.
Readout Name: log10(IC50) (log10 of the value in nM)

{"columns": ["Molecule", "log10(IC50)"],
 "data": [
  ["COc1cc(OC)cc(-c2nc(-c3nc(-c4cn(CCO)nc4C)cnc3N)cn(C)c2=O)c1", 2.43],
  ["COc1cc(OC)cc(-c2nc(-c3nc(-c4cn(C5CCN(C)CC5)nc4C)cnc3N)cn(C)c2=O)c1 [Trifluoroacetate salt of 0016]", 1.47],
  ["COc1cc(OC)cc(-c2nc(-c3nc(-c4cn(CC(O)CC(F)(F)F)nc4C)cnc3N)cn(C)c2=O)c1 (single isomer, unassigned) [compound 0063]", 1.85],
  ["COc1cc(OC)cc(-c2nc(-c3nc(-c4cnn(CC(O)CC(F)(F)F)c4C)cnc3N)cn(C)c2=O)c1 (single isomer, unassigned) [compound 0064]", 2.26],
  ["COc1cc(OC)cc(-c2nc(-c3nc(-c4cnn(C)c4)cnc3N)cn(C)c2=O)c1", 1.90],
  ["COc1cc(OC)cc(-c2nc(-c3nc(-c4cnc5c(c4)CC(=O)N5C)cnc3N)cn(C)c2=O)c1 [Hydrochloride salt of 0033]", 3.36]
]}

====

# Method: Pharmacokinetic evaluation of compounds in mice
# Assay type: in vivo
# Cond: po, 300 mg/kg; CD-1 mouse (male), single gavage, 300 mpk, plasma
Structures can show the parent of a compound that is named as a salt.

{"columns": ["Compound", "Quantity Unit", "Cmax"],
 "data": [
  ["COc1cc(OC)c(Cl)c(-c2nc(-c3nc(-c4cn(C)nc4C)cnc3N)cn(C)c2=O)c1 [Trifluoroacetate salt of 0027]", "µM", 42.1]
]}

====

# System Tested: FGFR3 (Homo sapiens, UniProt P22607)
# Construct: purchased Invitrogen PV3145
# Method: 33P isotope-labeled kinase activity test (Reaction Biology Corp), wild-type FGFR3
# Format: biochemical
# Cond: wild-type kinase, 33P-ATP 30 μM, substrate pEY + Mn, 120 minutes at room temperature
Where a name gives a salt, the structure may show the parent alone.
// IC50 lookup, one value per entry
Readout Name: IC50 (nM)

{"columns": ["Compound", "Readout Name", "Value Observed"],
 "data": [
  ["COc1cc(OC)cc(-c2nc(-c3nc(-c4cnn(CC5(C#N)CC5)c4C)cnc3N)cn(C)c2=O)c1 [compound 0051]", "IC50", 4.11],
  ["COc1cc(OC)cc(-c2nc(-c3nc(-c4cnn(C5CCN(C)CC5)c4C)cnc3N)cn(C)c2=O)c1 [Trifluoroacetate salt of 0031]", "IC50", 27.8],
  ["COc1cc(OC)cc(-c2nc(-c3nc(-c4cn(CCO)nc4C)cnc3N)cn(C)c2=O)c1 [compound 0048]", "IC50", 57.8],
  ["COc1cc(OC)cc(-c2nc(-c3nc(-c4cnn(C)c4)cnc3N)cn(C)c2=O)c1 [compound 0017]", "IC50", 6.31],
  ["CCNC(=O)c1ccc(-c2cnc(N)c(-c3cn(C)c(=O)c(-c4cc(OC)cc(OC)c4)n3)n2)cn1 [compound 0038]", "IC50", 10.2],
  ["COc1cc(OC)cc(-c2nc(-c3nc(-c4cn(C5CCNCC5)nc4C)cnc3N)cn(C)c2=O)c1 [compound 0028]", "IC50", 10.5],
  ["COc1cc(OC)cc(-c2nc(-c3nc(-c4cn(CC5(C#N)CC5)nc4C)cnc3N)cn(C)c2=O)c1 [compound 0043]", "IC50", 7.99],
  ["COCCN1CCC(n2cc(-c3cnc(N)c(-c4cn(C)c(=O)c(-c5cc(OC)cc(OC)c5)n4)n3)c(C)n2)CC1 [compound 0035]", "IC50", 5.04],
  ["COc1cc(OC)cc(-c2nc(-c3nc(-c4cncc(C)c4)cnc3N)cn(C)c2=O)c1 [compound 0056]", "IC50", 10.8],
  ["COc1cc(OC)cc(-c2nc(-c3nc(-c4cnn(CC(O)CC(F)(F)F)c4C)cnc3N)cn(C)c2=O)c1 (single isomer, unassigned) [compound 0064]", "IC50", 16.2]
]}

====

// Selectivity FGFR1/2 lookup, one value per entry
# System Tested: FGFR2 (Homo sapiens, UniProt P21802)
# Construct: purchased Invitrogen PV3368
# Sequence (P21802 22-821): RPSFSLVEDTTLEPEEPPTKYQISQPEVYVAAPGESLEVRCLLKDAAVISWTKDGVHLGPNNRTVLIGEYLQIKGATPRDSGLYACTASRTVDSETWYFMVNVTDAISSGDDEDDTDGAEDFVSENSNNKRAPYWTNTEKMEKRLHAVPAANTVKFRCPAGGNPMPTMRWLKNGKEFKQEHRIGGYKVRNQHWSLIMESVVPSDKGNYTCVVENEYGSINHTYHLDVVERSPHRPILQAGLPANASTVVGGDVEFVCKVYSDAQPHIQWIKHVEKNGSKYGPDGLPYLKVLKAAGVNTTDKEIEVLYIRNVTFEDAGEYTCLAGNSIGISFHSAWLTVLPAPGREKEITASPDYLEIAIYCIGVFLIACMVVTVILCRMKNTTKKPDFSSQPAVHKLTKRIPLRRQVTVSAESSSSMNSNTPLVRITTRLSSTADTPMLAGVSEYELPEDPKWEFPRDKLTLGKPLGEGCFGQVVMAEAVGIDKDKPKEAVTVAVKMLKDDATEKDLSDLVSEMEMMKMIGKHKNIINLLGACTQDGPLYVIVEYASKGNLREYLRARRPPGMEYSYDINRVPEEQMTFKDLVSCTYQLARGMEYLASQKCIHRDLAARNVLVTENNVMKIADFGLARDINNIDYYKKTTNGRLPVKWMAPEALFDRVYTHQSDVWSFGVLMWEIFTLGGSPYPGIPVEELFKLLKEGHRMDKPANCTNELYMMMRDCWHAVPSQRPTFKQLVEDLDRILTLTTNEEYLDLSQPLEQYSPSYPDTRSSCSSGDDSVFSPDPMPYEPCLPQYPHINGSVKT
# Method: 33P isotope-labeled kinase activity test (Reaction Biology Corp), wild-type FGFR2
# Type: biochemical
# Cond: ratio of IC50 FGFR1 to IC50 FGFR2
Where a name gives a salt, the structure may show the parent alone.

{"columns": ["Compound", "System Tested", "Sign Qualifier", "Selectivity FGFR1/2"],
 "data": [
  ["COc1cc(OC)cc(-c2nc(-c3nc(-c4cn(CC(O)CC(F)(F)F)nc4C)cnc3N)cn(C)c2=O)c1 (single isomer, unassigned) [compound 0062]", "FGFR2 (Homo sapiens, UniProt P21802)", "=", 5.47],
  ["COc1cc(OC)cc(-c2nc(-c3nc(-c4cnn(CC5(C#N)CC5)c4C)cnc3N)cn(C)c2=O)c1", "FGFR2 (Homo sapiens, UniProt P21802)", "=", 4.48],
  ["COc1cc(OC)cc(-c2nc(-c3nc(-c4cnn(CCO)c4C)cnc3N)cn(C)c2=O)c1", "FGFR2 (Homo sapiens, UniProt P21802)", "=", 3.07],
  ["COc1cc(OC)cc(-c2nc(-c3nc(-c4cnn(C5CCN(C)CC5)c4C)cnc3N)cn(C)c2=O)c1 [Trifluoroacetate salt of 0031]", "FGFR2 (Homo sapiens, UniProt P21802)", "=", 4.15],
  ["COc1cc(OC)cc(-c2nc(-c3nc(-c4cncc(C)c4)cnc3N)cn(C)c2=O)c1", "FGFR2 (Homo sapiens, UniProt P21802)", "=", 10.62],
  ["COc1cc(OC)cc(-c2nc(-c3nc(-c4cnc5c(c4)CC(=O)N5C)cnc3N)cn(C)c2=O)c1 [Hydrochloride salt of 0033]", "FGFR2 (Homo sapiens, UniProt P21802)", "=", 7.27],
  ["COc1cc(OC)cc(-c2nc(-c3nc(-c4cn(CC5(C#N)CC5)nc4C)cnc3N)cn(C)c2=O)c1", "FGFR2 (Homo sapiens, UniProt P21802)", "=", 4.17],
  ["COc1cc(OC)c(Cl)c(-c2nc(-c3nc(-c4cn(C)nc4C)cnc3N)cn(C)c2=O)c1 [Trifluoroacetate salt of 0027]", "FGFR2 (Homo sapiens, UniProt P21802)", "=", 4.02],
  ["COc1cc(OC)cc(-c2nc(-c3nc(-c4cn(C)nc4C)cnc3N)cn(C)c2=O)c1 [Hydrochloride salt of 0023]", "FGFR2 (Homo sapiens, UniProt P21802)", "=", 5.11],
  ["COc1cc(OC)cc(-c2nc(-c3nc(-c4cn(CCO)nc4C)cnc3N)cn(C)c2=O)c1", "FGFR2 (Homo sapiens, UniProt P21802)", "=", 4.79],
  ["CCNC(=O)c1ccc(-c2cnc(N)c(-c3cn(C)c(=O)c(-c4cc(OC)cc(OC)c4)n3)n2)cn1", "FGFR2 (Homo sapiens, UniProt P21802)", ">", 68.4]
]}
